- System: Acinetobacter baumannii
- study_conditions: Concentration 300 ug.mL-1; ASSAY_TEST Inhibition of Bacterial Growth; detection method Absorption (OD600); MEDIA CAMHB; plate type 384well; NBS; CORNING #3640; time 18 hr
- Description: Antibacterial activity against Acinetobacter baumannii ATCC 19606 (CO-ADD:GN_034); MIC in CAMBH media using NBS plates, by OD600
The whole screen tested about 21,000 compounds, of which fewer than 10 showed an effect of 50% or more. Only a sample is shown. Results with a measured potency or affinity are listed apart.
Entries annotated with measured Inhibition

| molecule | Inhibition / % |
| --- | --- |
| C[C@H](N)c1cccc(OCCN(C)C)c1 | 5.56 |
| O=C(Cn1ccc(=O)[nH]c1=O)NCc1cccnc1 | 6.41 |
| Cc1occc1C(=O)N1CCC(NC(=O)C2CC2)CC1 | 4.82 |
| CC(C)CCNC(=O)Nc1c[nH]c(=O)[nH]c1=O | 6.3 |
| NCc1ccc(-c2ccccc2)o1 | 16.01 |
| CCCN1CCC(N2CCC(C(N)=O)CC2)CC1 | -0.38 |
| Cc1nc(C(C)(C)N)sc1C | 11.05 |
| O=C(OCCC1CCCO1)c1ccncc1 (centres undefined) | -0.58 |
| CCn1cnnc1CC1CCCNC1 (centres undefined) | 9.33 |
| Cc1nc(CC(=O)NCC(C)n2ccnc2)cs1 (centres undefined) | 5.87 |
| COc1cn(-c2ccccc2)nc1C(=O)NCC(C)C | 12.56 |
| CCC(NC(=O)C1CC1)(C(N)=O)C(C)C (centres undefined) | 2.37 |
| Cc1nn(C)c2nc(NCCC(=O)N3CCCC3)sc12 | 3.37 |
| O=C1CCCc2sccc2N1 | 14.86 |
| CN(CCc1ccc(Br)cc1)C(=O)CCCN | 4.12 |
| NCC(=O)NCCN1CCCCC1 | 9.69 |
| O=C(Nc1ccc(NC(=O)C2CC2)nc1)c1ccsc1 | 12.11 |
| c1ncn(-c2ccc(NCC3CCOCC3)cc2)n1 | 5.37 |
| CNC[C@@H]1C[C@@H](O)CN1 | 4.99 |
| NS(=O)(=O)N1CCCNCC1 | 17.02 |
| CN(C(=O)CCn1cccn1)C1CCS(=O)(=O)C1 (centres undefined) | 0.97 |
| COCCN(C)C[C@@H]1CN(C(=O)C2CCC2)C[C@@H]1CO | 6.32 |
| CCn1cc(NC(=O)C(C)n2cccn2)cn1 (centres undefined) | 0.68 |
| Cc1ccc(C(CN)N2CCOCC2)o1 (centres undefined) | 1.38 |
| CC[C@H](N)C(=O)N1CC(Oc2c(C)cccc2C)C1 | 6.21 |
| COc1c(F)cccc1CN1C[C@H](O)[C@@H](N(C)C)C1 | 9.85 |
| CCc1nc(CNCC2CCN(CCO)CC2)no1 | 11.72 |
| O=C(c1cncc(F)c1)N1CC(N2CCCCC2)C1 | 2.2 |
| CC(C)C(=O)N1CCC(N)C1 (centres undefined) | 3.38 |

====

- System: Acinetobacter baumannii
- study_conditions: Concentration 300 ug.mL-1; ASSAY_TEST Inhibition of Bacterial Growth; detection method Absorption (OD600); MEDIA CAMHB; plate type 384well; NBS; CORNING #3640; time 18 hr
Out of some 21,000 compounds screened, fewer than 10 showed an effect of 50% or more. The list is a sample of the results. Potency and affinity values are given separately.
Inhibition overview

| compound | unit_abbrev | Inhibition |
| --- | --- | --- |
| CCS(=O)(=O)NCCCNS(=O)(=O)c1ccc(C)cc1 | % | 0.89 |
| NCc1cccc(N2CC=CC2)c1 | % | 6.5 |
| O=C(Nc1cncc(Br)c1Cl)N1CCC(O)C1 (configuration not stated) | % | -0.64 |
| O=S(=O)(c1ccco1)N1CCOCc2ccccc21 | % | 6.19 |
| CC(C)Oc1ncc(C(=O)N2CCC(O)CC2)cc1Cl | % | 1.14 |
| O=C(CNC1CC1)NC[C@H]1CCc2ccccc2O1 | % | 0.42 |
| O=C(NC1CCCOc2ccc(F)cc21)c1c[nH]nn1 (configuration not stated) | % | 8.95 |
